- systemName: PTHR1 receptor
- Sequence (P25961 whole entry): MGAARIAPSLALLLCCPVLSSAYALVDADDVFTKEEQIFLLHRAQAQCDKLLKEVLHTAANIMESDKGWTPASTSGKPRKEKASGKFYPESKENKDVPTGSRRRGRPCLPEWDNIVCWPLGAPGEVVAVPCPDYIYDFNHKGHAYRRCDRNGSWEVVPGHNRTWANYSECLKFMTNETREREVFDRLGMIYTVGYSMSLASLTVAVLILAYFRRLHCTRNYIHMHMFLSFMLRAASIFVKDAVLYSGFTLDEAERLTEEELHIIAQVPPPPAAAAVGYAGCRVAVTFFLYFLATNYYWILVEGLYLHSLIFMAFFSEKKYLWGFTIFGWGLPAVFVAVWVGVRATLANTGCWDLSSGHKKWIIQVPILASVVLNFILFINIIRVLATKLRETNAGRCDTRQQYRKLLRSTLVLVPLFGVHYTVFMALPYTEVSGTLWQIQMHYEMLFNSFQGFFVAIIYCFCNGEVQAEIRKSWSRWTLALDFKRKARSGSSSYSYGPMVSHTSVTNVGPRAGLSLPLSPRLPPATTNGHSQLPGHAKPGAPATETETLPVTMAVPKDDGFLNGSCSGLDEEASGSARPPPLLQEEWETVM
* marks the point of attachment. Palmitoyl = CCCCCCCCCCCCCCCC(=O)*
Parameter Fold Shift of EC50: see the listing below.
Give the number; fold is assumed, so skip it.

binder	value
Palmitoyl-TNAGRSDTRQQYRF-NH2 (SMILES CCCCCCCCCCCCCCCC(=O)N[C@H](C(=O)N[C@@H](CC(N)=O)C(=O)N[C@@H](C)C(=O)NCC(=O)N[C@@H](CCCNC(=N)N)C(=O)N[C@@H](CO)C(=O)N[C@@H](CC(=O)O)C(=O)N[C@H](C(=O)N[C@@H](CCCNC(=N)N)C(=O)N[C@@H](CCC(N)=O)C(=O)N[C@@H](CCC(N)=O)C(=O)N[C@@H](Cc1ccc(O)cc1)C(=O)N[C@@H](CCCNC(=N)N)C(=O)N[C@@H](Cc1ccccc1)C(N)=O)[C@@H](C)O)[C@@H](C)O) [Compound 70]	2

Consider now this further binder.
query: Tell me measured Fold Shift of EC50 for Palmitoyl-TNAARSDTRQQYRKLL-NH2 (SMILES CCCCCCCCCCCCCCCC(=O)N[C@H](C(=O)N[C@@H](CC(N)=O)C(=O)N[C@@H](C)C(=O)N[C@@H](C)C(=O)N[C@@H](CCCNC(=N)N)C(=O)N[C@@H](CO)C(=O)N[C@@H](CC(=O)O)C(=O)N[C@H](C(=O)N[C@@H](CCCNC(=N)N)C(=O)N[C@@H](CCC(N)=O)C(=O)N[C@@H](CCC(N)=O)C(=O)N[C@@H](Cc1ccc(O)cc1)C(=O)N[C@@H](CCCNC(=N)N)C(=O)N[C@@H](CCCCN)C(=O)N[C@@H](CC(C)C)C(=O)N[C@@H](CC(C)C)C(N)=O)[C@@H](C)O)[C@@H](C)O) [Compound 80] please.
result: 2.3

Provenance of the data: patent US20110294738A1
